Please provide measured AVERAGE ΔMAX CPM for the entries that follow.
# Test system: PBMC from normal individuals
# test-protocol: In vitro T cell proliferative responses of human PBMC ([3H]thymidine incorporation)
# Assay type: cell-based
# condition-set: 2nd Stimulation, average of 5 donors
Field note: include the unit after the figure.

CC(C)C[C@H](NC(=O)[C@@H](NC(=O)[C@H](CCCCN)NC(=O)[C@H](C)NC(=O)[C@H](C)NC(=O)[C@@H](NC(=O)[C@H](CC1CCCCC1)NC(=O)[C@H](CCCCN)NC(=O)[C@@H](C)N)C(C)C)[C@@H](C)O)C(=O)N[C@@H](CCCCN)C(=O)N[C@@H](C)C(=O)N[C@@H](C)C(=O)N[C@H](C)C(N)=O = 5523 cpm
CC(C)C[C@H](NC(=O)[C@@H](NC(=O)[C@H](CC(N)=O)NC(=O)[C@H](C)NC(=O)[C@H](C)NC(=O)[C@@H](NC(=O)[C@H](CC1CCCCC1)NC(=O)[C@H](CCCCN)NC(=O)[C@@H](C)N)C(C)C)[C@@H](C)O)C(=O)N[C@@H](CCCCN)C(=O)N[C@@H](C)C(=O)N[C@@H](C)C(=O)N[C@H](C)C(N)=O = 11208 cpm
CC(C)C[C@H](NC(=O)[C@@H](NC(=O)[C@H](C)NC(=O)[C@H](C)NC(=O)[C@H](C)NC(=O)[C@@H](NC(=O)[C@H](CC1CCCCC1)NC(=O)[C@H](CCCCN)NC(=O)[C@@H](C)N)C(C)C)[C@@H](C)O)C(=O)N[C@@H](CCCCN)C(=O)N[C@@H](C)C(=O)N[C@@H](C)C(=O)N[C@H](C)C(N)=O = 1843 cpm

In the following, a different compound is considered.
Given "CC(C)C[C@H](NC(=O)[C@@H](NC(=O)[C@H](Cc1ccc(O)cc1)NC(=O)[C@H](C)NC(=O)[C@H](C)NC(=O)[C@@H](NC(=O)[C@H](CC1CCCCC1)NC(=O)[C@H](CCCCN)NC(=O)[C@@H](C)N)C(C)C)[C@@H](C)O)C(=O)N[C@@H](CCCCN)C(=O)N[C@@H](C)C(=O)N[C@@H](C)C(=O)N[C@H](C)C(N)=O" , state its recorded AVERAGE ΔMAX CPM. 12059 cpm

###

# System: PBMC from normal individuals
# test-protocol: In vitro T cell proliferative responses of human PBMC ([3H]thymidine incorporation)
# Type: cell-based
# condition-set: 3rd Stimulation, donor X372
Output YES for X372 (Δmax cpm) not less than 30000 cpm; output NO otherwise.

Solved entries (count: 3):
CC(C)C[C@H](NC(=O)[C@@H](NC(=O)[C@H](CCCCN)NC(=O)[C@H](C)NC(=O)[C@H](C)NC(=O)[C@@H](NC(=O)[C@H](CC1CCCCC1)NC(=O)[C@H](CCCCN)NC(=O)[C@@H](C)N)C(C)C)[C@@H](C)O)C(=O)N[C@@H](CCCCN)C(=O)N[C@@H](C)C(=O)N[C@@H](C)C(=O)N[C@H](C)C(N)=O = NO
CC(C)C[C@H](NC(=O)[C@@H](NC(=O)[C@H](C)NC(=O)[C@H](C)NC(=O)[C@H](C)NC(=O)[C@@H](NC(=O)[C@H](CC1CCCCC1)NC(=O)[C@H](CCCCN)NC(=O)[C@@H](C)N)C(C)C)[C@@H](C)O)C(=O)N[C@@H](CCCCN)C(=O)N[C@@H](C)C(=O)N[C@@H](C)C(=O)N[C@H](C)C(N)=O = NO
CC(C)C[C@H](NC(=O)[C@@H](NC(=O)[C@H](CC(N)=O)NC(=O)[C@H](C)NC(=O)[C@H](C)NC(=O)[C@@H](NC(=O)[C@H](CC1CCCCC1)NC(=O)[C@H](CCCCN)NC(=O)[C@@H](C)N)C(C)C)[C@@H](C)O)C(=O)N[C@@H](CCCCN)C(=O)N[C@@H](C)C(=O)N[C@@H](C)C(=O)N[C@H](C)C(N)=O = NO

Could you tell me if the measured X372 (Δmax cpm) of "CC(C)C[C@H](NC(=O)[C@@H](NC(=O)[C@H](Cc1c[nH]c2ccccc12)NC(=O)[C@H](C)NC(=O)[C@H](C)NC(=O)[C@@H](NC(=O)[C@H](CC1CCCCC1)NC(=O)[C@H](CCCCN)NC(=O)[C@@H](C)N)C(C)C)[C@@H](C)O)C(=O)N[C@@H](CCCCN)C(=O)N[C@@H](C)C(=O)N[C@@H](C)C(=O)N[C@H](C)C(N)=O" reaches 30000 cpm or more? YES

The reported numbers originate from patent US20050049197A1.
